- assay_name: in vitro
- condition_set: human, hela cells, % viability
Please note: viability at 28.5 h, 10 µM exactly at 90% is 0. Only values below 90% get 1.

{"compound": "COc1ccccc1CN(C)CCc1ccccn1 [CBK261741G]", "class_assignment": 1}
{"compound": "C#CCNC(=O)CC[C@H]1CNC(=O)[C@@H]2[C@@H](CCN2Cc2nc3ccccc3n2C)N1C", "class_assignment": 0}
{"compound": "CCS(=O)(=O)Nc1cc(N2CCNCC2)c2occc2c1 [CBK059429C]", "class_assignment": 0}

----------
- assay_name: in vitro
- Set-up: Viability of infected HeLa host cells, resazurin conversion, bulk resorufin fluorescence relative to DMSO
- condition_set: human, hela cells; bulk resorufin, mean of 2
Entries and their measured viability at 28.5 h, 1 µM follow.

{"molecule": "Cc1cc(NS(=O)(=O)c2ccc(NC(=S)NC(=O)C(C)(C)C)cc2)no1 [CBK268877]", "viability at 28.5 h, 1 µM, %": 93.4}
{"molecule": "Cc1cc2cc(C(=O)N3CCC(c4c(C(=O)NC(C)C)sc5ccccc45)C3)ccc2o1 (centres unmarked) [CBK285873]", "viability at 28.5 h, 1 µM, %": 90}
{"molecule": "CC(N)C(=O)NC1CCN(c2nc3c(cc2F)c(=O)c(C(=O)O)cn3C23CC(C2)C3)C1 (centres unmarked) [CBK016632]", "viability at 28.5 h, 1 µM, %": 90.2}
{"molecule": "CCCc1cc(C(=O)N2CCN(c3nccc(OC)n3)CC2)[nH]n1 [CBK304898]", "viability at 28.5 h, 1 µM, %": 89.4}
{"molecule": "O=S(=O)(Nc1ccc(C(F)(F)F)cc1Cl)c1cc(Br)c(Cl)s1 [CBK057196]", "viability at 28.5 h, 1 µM, %": 90.4}
{"molecule": "CC(C)c1ccc(S(=O)(=O)Nc2cccc(SC(F)(F)F)c2)cc1 [CBK044581]", "viability at 28.5 h, 1 µM, %": 96.5}
{"molecule": "CCc1nnc(NS(=O)(=O)c2ccc(N/C=C3\\C(=O)N(c4ccc(C)cc4)N=C3C)cc2)s1 [CBK262395]", "viability at 28.5 h, 1 µM, %": 96}
{"molecule": "CN(C)CCCNC(=O)Nc1cccc(-c2nc(-c3ccc(C#N)cc3)cnc2N)c1 [CBK116287]", "viability at 28.5 h, 1 µM, %": 104}
